Assay: Human HepG2 cell viability assay in 384 well format
Format: toxicity, cell-based
Parameters: dose 125 nL, time 70.5 hour; concentration not given beside the values
Conditions: HepG2 cells, read-out: Inhibition
Would you kindly list cytotoxicity at 70.5 h for each of these compounds?
One number for each entry, in %.

Some compounds with recorded cytotoxicity at 70.5 h:
COMPOUND: Cn1ccnc1Sc1ccc(N)cn1
RECORDED_METRIC: cytotoxicity at 70.5 h
READOUT_UNITS: %
READING: 0.97
//
COMPOUND: Cc1cccc(CN2CCC3(CCCN(C(=O)CN(C)C)C3)C2=O)n1 (stereo not drawn)
RECORDED_METRIC: cytotoxicity at 70.5 h
READOUT_UNITS: %
READING: 2.41
//
COMPOUND: COc1cccc2c1OCC(Cc1cnc(N)c(C)c1)C2 (stereo not drawn)
RECORDED_METRIC: cytotoxicity at 70.5 h
READOUT_UNITS: %
READING: -8.04
//
COMPOUND: Fc1ccc(CN2CCC3(CC2)CCN(c2ncccn2)CC3)cc1
RECORDED_METRIC: cytotoxicity at 70.5 h
READOUT_UNITS: %
READING: 10.9
//
COMPOUND: Cc1cnccc1CN(C)C(=O)C(C)(C)NC(=O)c1cccs1
RECORDED_METRIC: cytotoxicity at 70.5 h
READOUT_UNITS: %
READING: 0.902

List cytotoxicity at 70.5 h for every entry below, keeping the order given.
1. Cc1cccc2nc(CNC(=O)N3CCC(OCC4CC4)CC3)cn12
2. CNc1nc(CNC(=O)Nc2ccccc2C(F)(F)F)cs1

1: 24.4; 2: -2.38

List cytotoxicity at 70.5 h for every entry below, keeping the order given.
1. CN(C)S(=O)(=O)N1CCCC(c2nccnc2-c2cccc(Cl)c2)C1 (stereo not drawn)
2. CC(=O)N1CCCN(C(C)c2ccc(Br)cc2)CC1 (stereo not drawn)
3. CC(=O)N(Cc1noc(C)n1)C1CCN(CC2CCCC2)C1 (stereo not drawn)
4. CC(=O)N1CCN(Cc2nccs2)CC2(CC(=O)N(C)C2)C1 (stereo not drawn)
5. CS(=O)(=O)Nc1cccc(CNC(=O)CCNC(=O)c2cccs2)c1
6. OC1(CNc2ccc(Br)cn2)CCC1
7. CN1CCN(C)C2(CCN(Cc3ccc(C4CCCO4)s3)CC2)C1 (stereo not drawn)

[-1.8, 17.2, 23.3, -11.2, 23.6, 16.3, -3.28]

====

Experiment: Human HepG2 cell viability assay in 384 well format
Type: toxicity, cell-based
Set-up: dose 125 nL, time 70.5 hour; concentration not given beside the values
Conditions: HepG2 cells, read-out: Inhibition
RECORDED_METRIC: cytotoxicity at 70.5 h (%)
Give bare numbers, in %.

Some molecules with recorded cytotoxicity at 70.5 h:
MOLECULE: CN(CCOc1cccc(Cl)c1)Cc1nnc(C(C)(C)C)o1
READOUT_UNITS: %
cytotoxicity at 70.5 h: -2.27

MOLECULE: CC(C)c1noc(CCNC(=O)NCC2COc3ccccc3O2)n1 (centres undefined)
READOUT_UNITS: %
cytotoxicity at 70.5 h: -11.6

MOLECULE: CCCn1ccnc1CN1CC[C@@H](NC(=O)c2cccnc2)[C@H](O)C1
READOUT_UNITS: %
cytotoxicity at 70.5 h: -16.3

Continue with the next molecule.
Please report the recorded cytotoxicity at 70.5 h for COCCn1ccnc1C1CCN(C(=O)C(O)c2ccc(F)cc2)CC1 (centres undefined) .
-5.34

====

Assay: Human HepG2 cell viability assay in 384 well format
Assay type: toxicity, cell-based
Set-up: dose 125 nL, time 70.5 hour; concentration not given beside the values
Conditions: HepG2 cells, read-out: Inhibition
Would you kindly list cytotoxicity at 70.5 h for each of these compounds?
Please state the value followed by its unit.

COMPOUND: CCN(CC)CCn1cnc(-c2ccccc2)c1-c1cnn(CC)c1
RECORDED_METRIC: cytotoxicity at 70.5 h
READING: -10.7%
--
COMPOUND: CC(C)Oc1cccc(CC(=O)N(CC(N)=O)C2CCCC2)c1
RECORDED_METRIC: cytotoxicity at 70.5 h
READING: -6.57%
--
COMPOUND: CCOc1ccc(CN2CCOCC2c2[nH]ncc2C)cc1CO (stereo not given)
RECORDED_METRIC: cytotoxicity at 70.5 h
READING: -2.3%
--
COMPOUND: CCC(CC)C(=O)NCCc1ccn(-c2ccccc2)n1
RECORDED_METRIC: cytotoxicity at 70.5 h
READING: -0.813%
--
COMPOUND: CC[C@@H](CO)Nc1nccc(-c2cnc3sc(C)cn3c2=O)n1
RECORDED_METRIC: cytotoxicity at 70.5 h
READING: 15.2%

List cytotoxicity at 70.5 h for every entry below, keeping the order given.
1. O=C(c1cccc(CN2CCCC2)c1)N1CCCC(n2cncn2)C1 (stereo not given)
2. c1ccc(OCC2CC3(CCN(c4ncccn4)CC3)CO2)nc1 (stereo not given)
3. NCC1CCC2(CCN(C(=O)c3ccccn3)CC2)CO1 (stereo not given)
4. CC(C)NC(=O)NC[C@@]1(COc2cnccn2)C[C@@H](O)[C@@H](O)C1
5. CCn1nc2c(cc1=O)CN(CCOc1cccc(C#N)c1)CC2

16.1%
-19.6%
2.02%
3.08%
-3.93%

====

Test: Human HepG2 cell viability assay in 384 well format
Format: toxicity, cell-based
Design: dose 125 nL, time 70.5 hour; concentration not given beside the values
Details: HepG2 cells, read-out: Inhibition
Would you kindly list cytotoxicity at 70.5 h for each of these compounds?
Numbers only, in %.

Some compounds with recorded cytotoxicity at 70.5 h:
COMPOUND: CN1CCn2nc(-c3nc4ccccc4n3C)cc2C1
cytotoxicity at 70.5 h, %: 32.2
//
COMPOUND: CC(CNS(=O)(=O)c1cccc(Cl)c1)N1CCN(C)CC1 (stereo not drawn)
cytotoxicity at 70.5 h, %: -5.03

Continue with the next compound.
Please report the recorded cytotoxicity at 70.5 h for Cc1nc(C(=O)Nc2cc(N3CCNC3=O)ccc2Cl)cs1 .
-2.48

====

Experiment: Human HepG2 cell viability assay in 384 well format
Assay type: toxicity, cell-based
Set-up: dose 125 nL, time 70.5 hour; concentration not given beside the values
Conditions: HepG2 cells, read-out: Inhibition
RECORDED_METRIC: cytotoxicity at 70.5 h (%)
Give bare numbers, in %.

Some compounds with recorded cytotoxicity at 70.5 h:
COMPOUND: COCC(=O)N1CC[C@@H]2O[C@@H](COCc3csc(C)n3)CC[C@@H]21
RECORDED_METRIC: cytotoxicity at 70.5 h
READING: 4.53

COMPOUND: CCN(CC)C(=O)c1ccc(NC(=O)CNc2ccc(F)cc2Cl)cc1
RECORDED_METRIC: cytotoxicity at 70.5 h
READING: -6.34

COMPOUND: Cc1ccc(F)c(S(=O)(=O)N2CCCC2c2ccncc2)c1 (configuration not stated)
RECORDED_METRIC: cytotoxicity at 70.5 h
READING: -1.25

COMPOUND: Cc1ccc(-c2nc(CC(=O)NCC(C)N3CCOCC3)cs2)o1 (configuration not stated)
RECORDED_METRIC: cytotoxicity at 70.5 h
READING: -3.4

List cytotoxicity at 70.5 h for every entry below, keeping the order given.
1. O=C(C1CC1)N1CCC(c2nc(O)c3c(n2)CN(C2CCCC2)CC3)C1 (configuration not stated)
2. CC(C)(CO)CNC(=O)c1ccnn1-c1ccc2ccccn12
3. O=C(c1ccco1)N1CC[C@@H]2O[C@@H](COCCN3CCCC3)CC[C@@H]21

1. 9.71
2. -2.1
3. -3.08

====

Experiment: Human HepG2 cell viability assay in 384 well format
Format: toxicity, cell-based
Set-up: dose 125 nL, time 70.5 hour; concentration not given beside the values
Conditions: HepG2 cells, read-out: Inhibition
RECORDED_METRIC: cytotoxicity at 70.5 h (%)
Answers are plain numbers, in %.

Some compounds with recorded cytotoxicity at 70.5 h:
COMPOUND: CN1CC(c2ccccc2)CC12CCN(C(=O)c1ccc(F)cc1)CC2 (stereo unspecified)
READOUT_UNITS: %
cytotoxicity at 70.5 h: -4.24

COMPOUND: CCc1csc(C2CCCN(C(=O)C3=NN(CC)C(=O)CC3)C2)n1 (stereo unspecified)
READOUT_UNITS: %
cytotoxicity at 70.5 h: 3.39

COMPOUND: c1ccc(-c2nc(CNC3CCCN(c4cccnn4)C3)no2)cc1 (stereo unspecified)
READOUT_UNITS: %
cytotoxicity at 70.5 h: 18.6

COMPOUND: CC(C(=O)NCc1ccc(N2CCNC(=O)C2)cc1)n1cncn1 (stereo unspecified)
READOUT_UNITS: %
cytotoxicity at 70.5 h: 4.32

COMPOUND: CCN1CCN(C(C)(C)CNc2nc(C)cc(C3CCC3)n2)CC1
READOUT_UNITS: %
cytotoxicity at 70.5 h: -5.33

COMPOUND: O=C(COc1ccccc1O)N1CCOC(C(F)(F)F)C1 (stereo unspecified)
READOUT_UNITS: %
cytotoxicity at 70.5 h: 17.8

COMPOUND: CCN1CC(O)CN(C(=O)c2cccc(C(F)(F)F)c2)CC1=O (stereo unspecified)
READOUT_UNITS: %
cytotoxicity at 70.5 h: -4.06

COMPOUND: Fc1cnc(N2CCO[C@H]3CN(CC4CCOC4)C[C@H]32)nc1 (stereo partly specified)
READOUT_UNITS: %
cytotoxicity at 70.5 h: 26.2

COMPOUND: Cc1cccc(CN2C[C@@H]3COC[C@]3(CNC(=O)C3CC3)C2)c1
READOUT_UNITS: %
cytotoxicity at 70.5 h: -9.63

COMPOUND: CCn1ncc2c1CCCC2NCc1cscn1 (stereo unspecified)
READOUT_UNITS: %
cytotoxicity at 70.5 h: -5.01

List cytotoxicity at 70.5 h for every entry below, keeping the order given.
1. CCc1nc(N2CCCC(CO)(CCOC)C2)ncc1C (stereo unspecified)
2. CN(CCc1ccccc1)Cc1cc(C(=O)N2CCN(C)C(=O)C2)no1
3. Cc1nc(CC2CCN(Cc3ccc(CCC(C)(C)O)cc3)CC2)no1
4. Cc1ccc(C(=O)N2CCN(Cc3nc(C(C)C)no3)CC2)c(=O)[nH]1
5. Cc1csc(C2CCCN(C(=O)Cn3ccccc3=O)C2)n1 (stereo unspecified)
6. CNc1cncc(C2CCCN2C(=O)c2ccc3c(c2)CCC3)n1 (stereo unspecified)

-7.73
-14.7
13.1
1.28
-3.71
9.47

List cytotoxicity at 70.5 h for every entry below, keeping the order given.
1. O=C(c1ccoc1)N1CCCN(C(=O)c2ccc(C3CCCN3)s2)CC1 (stereo unspecified)
2. O=C(COc1coc(CN2CCCCC2)cc1=O)NCc1ccccc1
3. Cc1nc(-c2cnn(C)c2)nc2c1CN(C(=O)c1cccnc1)CC2
4. Cc1cccc(C(=O)N2CCN(CCC(C)C)CC2)n1
5. O=C1CC2(CCN(Cc3ccc(-c4ccccc4)s3)C2)C(=O)N1 (stereo unspecified)

-7.17
-15.4
-2.03
-11.4
-3.29

List cytotoxicity at 70.5 h for every entry below, keeping the order given.
1. CN(Cc1ccncc1)C(=O)NCc1nnc2n1CCCCC2
2. Cc1nnc2n1CCN(Cc1nc(-c3ccoc3)no1)C2

1. 22.9
2. 13.6

List cytotoxicity at 70.5 h for every entry below, keeping the order given.
1. CCC(C#N)NC(=O)CCNC(=O)C(C)(C)C (stereo unspecified)
2. Cc1nn(C)c(Cl)c1C1CCCN1C(=O)c1cccc(C#N)c1 (stereo unspecified)

1. 0.625
2. 0.647

Cited source for all entries: ChEMBL document CHEMBL3507680
